Measured TGI of individual entries
# System: NCI-H23 lung
# procedure-summary: NCI tumour cell line growth inhibition, 48 h

compound | assayed-target | result
CCOC(=O)c1c(N)sc2c1C(C(=O)OCC)CC2 (stereo not drawn) | NCI-H23 lung | > 100 µM
COc1cc(C(=O)C/C(CCCC(=O)Nc2ccccc2[N+](=O)[O-])=N/NC(=O)c2cc3ccccc3cc2O)ccc1O | NCI-H23 lung | > 100 µM
O=C(c1cccc2ccccc12)C1(Br)S(=O)(=O)OCCOS1(=O)=O | NCI-H23 lung | > 100 µM
CC1(C)CC(=O)c2c(C(F)(F)F)nn(-c3ccc(C(N)=O)c(NC4CCC(OC(=O)CN)CC4)c3)c2C1 (stereo not drawn) | NCI-H23 lung | > 100 µM
CCCC(C)c1cc(Cc2cc(Cl)cc(Cl)c2O)c(O)c(Cc2cc(Cl)cc(Cl)c2O)c1 (stereo not drawn) | NCI-H23 lung | 9.64 µM

Recall and state the measured TGI for "CN(C)CCCNC(=O)CCNC(=O)c1cc(NC(=O)c2cc(NC(=O)c3cc(NC(=O)c4nc(NC(=O)CCCNC(=O)c5cc(NC(=O)c6cc(NC(=O)c7cc(NC(=O)c8nccn8C)cn7C)cn6C)cn5C)cn4C)cn3C)cn2C)cn1C" .
> 100 µM

Could you please provide reported TGI for "Cc1[nH]ccc2c1[nH]c1cc(=O)ccc12" ? Thanks!
> 100 µM

Using known records, supply TGI for CC(CCC(=O)O)[C@H]1CCC2[C@@H]3CC[C@@H]4CC(O)CC[C@]4(C)C3CC[C@@]21C (stereo partly drawn)
37.9 µM

Tell me measured TGI for "O=C(/C=C/c1ccccc1)c1cc(Br)ccc1O" please.
31.4 µM

Look up and report measured TGI for this entry: "COc1ccc2c(C)cc(N/N=C(\C)C=O)nc2c1"
24.8 µM

Please report the measured TGI for "C=CCOc1ccc(/C(N=Nc2ccc([N+](=O)[O-])cc2)=N/NC(=O)c2ccccc2)cc1OC"
> 100 µM

Give recorded TGI. "O=C(CSc1nnc(-c2ccc(N=Cc3ccc(Cl)cc3)cc2)o1)Nc1ccc(Cl)cc1Cl"
59.3 µM

Supply reported TGI belonging to this compound: "Oc1cccc2ccc(N/N=C/c3cc(CN4CCCCC4)c(O)c4ncccc34)nc12"
1.45 µM

---

# System: HS 578T breast
# procedure-summary: NCI tumour cell line growth inhibition, 48 h
readout-label: TGI

molecule | assayed-target | result
CCOC(=O)C1(C(=O)OCC)Nc2cccnc2N(C)N1 | HS 578T breast | > 100 µM

Tell me measured TGI for "N=C(N)c1ccc(-c2ccc(-c3cc(Cl)cc(Cl)c3)o2)nc1" please.
3.93 µM

Please supply the value of reported TGI for the item "CCOC(=O)c1cc(NS(=O)(=O)c2ccccc2)cc(C(=O)OCC)c1"
> 100 µM

Complete the entry with TGI for "O=[N+]([O-])c1ccc(-c2csc3nc(-c4ccccc4)nn23)cc1"
> 100 µM

Give the reported TGI for this molecule. "CSc1ncc2c(C#N)c3sc4ccccc4n3c(=O)c2n1"
51.3 µM

Please report TGI for the following molecule: "COc1ccc(/C(=C2/O[C@@H]([C@H]3COC(C)(C)O3)[C@H]3OC(C)(C)O[C@@H]23)c2cc(OC)c(OC)c(OC)c2)cc1O"
67.9 µM

Answer with the recorded TGI for the molecule listed here: "Cc1cc(N(CCCl)CCCl)ccc1C=Nc1ccc(-c2csc(Cc3ccccc3)n2)cc1"
83.7 µM

Supply TGI value. Item: "CCN(CC)CCC(=O)c1ccc(Oc2ccc(Cl)cc2)cc1"
59 µM

Find the measured TGI of CCOC(=O)C1=[N+]([O-])OC2=C(O)CCCC21 (stereo unspecified) and report it.
> 100 µM

Supply reported TGI belonging to this molecule: "O=c1c2nn3c(=O)n(-c4ccccc4)c(=O)c3nn2c(=O)n1-c1ccccc1"
> 100 µM

Return value of TGI for input CCOC(=O)C(=[N+]=[N-])C(=O)C1(C(=O)OCC)CCN(C(=O)c2ccccc2)C1=O (stereo unspecified) , no commentary.
> 100 µM

Hello, the source for this data is PubChem BioAssay (NCI), in case you need it.
